Below is a list of entries, each paired with its recorded composite z-score value.
molecular target: Torsin-1A (Homo sapiens); experiment: small-molecule binders of mutant TOR1A in lysate, primary screen, cell lysate, small-molecule microarray, COS7 lysate, 635/667 nm fluorescence (AID 1150); conditions: COS7 hTOR1A mutant lysate, 635 nm fluorescence, higher = more signal;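 note: score pools 667 nm emission and signal to noise measuring lysate protein binding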

Solved cases (3 shown):
>>> value_observed("[N-]=[N+]=NCc1ccccc1C[C@]1(C(=O)O)N=C(c2ccc(OCCCO)cc2)O[C@H]1c1ccccc1CN=[N+]=[N-]")
0.48
>>> value_observed("CC(=O)NCCCC[C@@H]1NC(=O)[C@@H]2C[C@H](C(=O)NCCCCCCNC(=O)CS)[C@H](c3ccc(O)cc3)N2C1=O")
0.936
>>> value_observed("CN(C)CCCNC(=O)[C@@]1(Cc2ccccc2I)c2ccccc2C(=O)N(Cc2ccccc2C(F)(F)F)[C@H]1c1ccc(CO)cc1")
0.135

Task: Fill in composite z-score for record CN1C(=O)C2C(C1=O)C1C=C(CCCO)C2C(c2cccs2)N1C (configuration not stated)
Output: -0.332

Task: Fill in composite z-score for record C=C[C@@H](COC(C)=O)N(Cc1ccccc1[N+](=O)[O-])S(=O)(=O)c1ccc(Br)cc1
Output: 1.58

Task: Fill in composite z-score for record Cc1ccc([C@H]2C(C(=O)O)=C[C@@H](C)N2S(=O)(=O)c2ccc(C)cc2)cc1
Output: -0.465

Task: Fill in composite z-score for record COCCOC(=O)N1C(=O)[C@@]2(c3cc(C#CCNC(N)=O)ccc31)[C@H](c1ccc(O)cc1)N1[C@H](c3ccccc3)[C@H](c3ccccc3)OC(=O)[C@H]1[C@@H]2C(=O)NC[C@H](O)c1ccccc1
Output: 0.353
